- tested.target: Phospholipase A2 (Homo sapiens, UniProt P04054);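 also: confirmatory dose-response counterscreen on phospholipase A2, testing hits that came from an ultra-high-throughput screen for ATG4B inhibitors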
- Sequence (P04054 whole entry): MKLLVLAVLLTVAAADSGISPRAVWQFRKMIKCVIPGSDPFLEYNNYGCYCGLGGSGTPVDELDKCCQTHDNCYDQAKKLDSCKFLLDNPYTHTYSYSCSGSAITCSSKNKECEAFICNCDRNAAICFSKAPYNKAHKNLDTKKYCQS
- Assay type: functional
Calls of active or inactive are those of the source.
Possible outcomes: TRUE (active), FALSE (inactive)

| structure.as.smiles | assigned.category |
| --- | --- |
| COc1cc(/C=C2/C(=N)N3C=CSC3=NC2=O)ccc1OCCCOc1c(C)cccc1C | TRUE |
| CC(/C=C1\SC(=S)N(c2ccc(C(=O)O)cc2)C1=O)=C\c1ccccc1 | TRUE |
| Cc1ccccc1S(=O)(=O)Nc1nc2ccccc2nc1N1CCc2ccccc2C1 | TRUE |
| O=C(N/N=C/c1ccccc1Cl)c1nc(O)c2cc([N+](=O)[O-])ccc2n1 | FALSE |
| Oc1ccc(Cl)cc1Sc1cc(Cl)ccc1O | TRUE |

====

- tested.target: UniProt:P9WHJ3
- Sequence (P9WHJ3 whole entry): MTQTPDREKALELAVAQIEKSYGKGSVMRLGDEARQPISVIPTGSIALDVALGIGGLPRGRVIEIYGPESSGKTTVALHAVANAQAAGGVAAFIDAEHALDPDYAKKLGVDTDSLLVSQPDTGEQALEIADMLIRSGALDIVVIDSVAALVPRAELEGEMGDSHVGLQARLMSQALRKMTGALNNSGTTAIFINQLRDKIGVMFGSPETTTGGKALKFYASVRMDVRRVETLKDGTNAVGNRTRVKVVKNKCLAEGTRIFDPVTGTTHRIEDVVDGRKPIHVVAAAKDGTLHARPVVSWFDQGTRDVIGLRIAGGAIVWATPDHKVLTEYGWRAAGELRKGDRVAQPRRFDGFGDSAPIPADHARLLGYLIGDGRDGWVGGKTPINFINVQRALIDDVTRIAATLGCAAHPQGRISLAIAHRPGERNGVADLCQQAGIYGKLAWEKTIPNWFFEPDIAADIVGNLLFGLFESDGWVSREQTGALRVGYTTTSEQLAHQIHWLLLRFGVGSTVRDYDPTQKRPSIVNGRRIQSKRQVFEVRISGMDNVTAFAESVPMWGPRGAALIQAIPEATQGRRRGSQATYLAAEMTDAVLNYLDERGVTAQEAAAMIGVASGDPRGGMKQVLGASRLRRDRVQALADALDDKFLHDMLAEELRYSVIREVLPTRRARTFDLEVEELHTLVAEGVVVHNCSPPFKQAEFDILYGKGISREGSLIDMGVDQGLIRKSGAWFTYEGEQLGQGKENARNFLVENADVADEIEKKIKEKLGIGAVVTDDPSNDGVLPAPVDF
- assay.comment: Fluorescence Cell-Free Homogeneous Dose Retest to Identify Inhibitors of RecA-Intein Splicing Activity. [Related pubchem assays (depositor defined):AID2097, AID2223, AID489010, AID492950]
- Format: functional
Activity calls are given as the source filed them.

| molecule | EC50 |
| --- | --- |
| O=C1Cc2ccccc2C(=O)N1CCc1ccccc1 | 2.99 µM (active) |
| CC(C)c1ccc(/C=N/NC(=O)c2nnn(-c3nonc3N)c2CSC2=NCCS2)cc1 | 8.86 µM (active) |
| Cn1cnc([N+](=O)[O-])c1Oc1cccc2ccccc12 | 13.2 µM (active) |
| COc1ccc(NC(=S)Nc2ccc3nsnc3c2)cc1 | 17.5 µM (active) |
| COc1ccc(-c2cc(C(=O)n3cnc4ccccc43)c3ccccc3n2)cc1 | 3.72 µM (active) |
| CCCCOP(=O)(OCCCC)C1(NS(=O)(=O)c2ccccc2)C=CC(=O)c2ccccc21 (stereo unspecified) | 1.82 µM (active) |

// provenance: ChEMBL document CHEMBL1201862
